# Test system: NCI-H522
# assay: NCI tumour cell line growth inhibition, 48 h
Calls of active or inactive are those of the source. Cut-off read from the data, not from the text of the source: active = GI50 up to about 1.1 µM and inactive = higher.
Outcome field: choose from yes for active, no for inactive

Worked examples, 2 compounds total:
compound	assay-system	qualitative-label
CC1S(=O)(=O)OCCOS1(=O)=O	NCI-H522	no
O=C(/C=C/c1ccc2c(c1)OCO2)c1ccc(O)cc1	NCI-H522	no

IN: Recorded test call requested for CC#Cc1cc2c(cc1O)CC[C@@H]1[C@@H]2CC[C@]2(C)[C@@H](O)CC[C@@H]12
OUT: yes

IN: Could you kindly confirm the outcome this assay logged for CCOC(=O)c1c(-c2ccc(OC)c(O)c2)c(C#N)c(=S)n(C2OC(COC(C)=O)C(OC(C)=O)C(OC(C)=O)C2OC(C)=O)c1-c1ccccc1 (configuration not stated) ?
OUT: no

IN: What did this assay record as the result for CSC(C1c2ccccc2N(C)c2[nH]c(=O)n(C)c(=O)c21)S(=O)(=O)c1ccc(C)cc1 (configuration not stated) ?
OUT: no

IN: Tell me the assay call for O=C1c2cc3c(cc2CC12Cc1ccccc1C2)CCC3 please.
OUT: no

IN: Please indicate how the test categorized COC(=O)C1=C(OC(=O)/C(=C/c2ccccc2)c2ccc(Cl)cc2Cl)C(C(=O)OC)[C@@]2(O)[C@@H](C(=O)OC)[C@H](C)C[C@@H]1[C@@H]2C(=O)OC (some centres not stated) .
OUT: no

IN: Hi team, can someone confirm the assay call for COC(=O)[C@H](Cc1ccccc1)NC(=O)/C(=C/C(C)C)NC(=O)[C@H](CCSC)NC=O ?
OUT: no

---

# System: NCI/ADR-RES
# assay: NCI tumour cell line growth inhibition, 48 h
Calls of active or inactive are those of the source. Rule as the data show it: active = GI50 up to about 1.1 µM and inactive = higher. Non-standard residues stand in square brackets, D forms with d. Residues, ends and D or L forms follow the SMILES beside them. *: point of attachment. Ac5c = NC1(C(=O)O)CCCC1; Boc = CC(C)(C)OC(=O)*; tBu = CC(C)(C)*
Pick one: active, inactive

compound	qualitative-label
CC1(C)OC(=O)C2(O1)C(=O)C1CCCCC12 (configuration not stated)	inactive
CC(OC(C)(C)C)C1NC(=O)C(CCCCNC(=O)OC(C)(C)C)NC(=O)C(Cc2c[nH]c3ccccc23)NC(=O)C(Cc2ccccc2)NC(=O)C2(CCCC2)NC(=O)C(Cc2ccccc2)NC1=O (configuration not stated) (cyclo([Ac5c]FWK(Boc)T(tBu)F); configuration not given here)	inactive
COC(=O)C1=C(OC(=O)/C(=C/c2ccccc2)c2ccc(Cl)cc2Cl)C(C(=O)OC)[C@@]2(O)[C@@H](C(=O)OC)[C@H](C)C[C@@H]1[C@@H]2C(=O)OC (some centres not stated)	inactive
C=CCCCCCCCCCOC1C=CC(O)C(CO)O1 (configuration not stated)	inactive

IN: Please let me know the test result on file for CCN(CC)CCC(=O)O[C@H]1CC[C@H](CC(C)[C@H]2CC(=O)C(C)C=C(C)[C@H](OC(=O)CCN(CC)CC)C(OC)C(=O)[C@@H](C)CC(C)/C=C/C=C/C=C(C)C(OC)CC3CC[C@H](C)[C@](O)(O3)C(=O)C(=O)N3CCCCC3C(=O)O2)CC1OC (some centres not stated) .
OUT: active

IN: Recorded test outcome, item CCCC(O)[C@@]1(CC)CC(C)C(O)(C2(C)C[C@H](C)[C@@H](C(CC)C(=O)C(C)[C@@H](O)[C@H](C)C3OC(O)(C(CC)C(=O)O)[C@@H](C)C(O)C3CC)O2)O1 (some centres not stated)
OUT: active

IN: Could you kindly confirm the outcome this assay logged for CC(=O)NC1C(OCc2ccccc2)OC(CO)C(O)C1OCC(=O)N[C@@H](C)C(=O)N[C@H](CCC(=O)NCCNCCNc1c2ccccc2nc2cccc([N+](=O)[O-])c12)C(N)=O (some centres not stated) ?
OUT: inactive
